The reported measurements were obtained from patent US20060067951A1.

subject-of-test: T1, S. mutans ComD histidine kinase receptor (Streptococcus mutans)
T1 chain: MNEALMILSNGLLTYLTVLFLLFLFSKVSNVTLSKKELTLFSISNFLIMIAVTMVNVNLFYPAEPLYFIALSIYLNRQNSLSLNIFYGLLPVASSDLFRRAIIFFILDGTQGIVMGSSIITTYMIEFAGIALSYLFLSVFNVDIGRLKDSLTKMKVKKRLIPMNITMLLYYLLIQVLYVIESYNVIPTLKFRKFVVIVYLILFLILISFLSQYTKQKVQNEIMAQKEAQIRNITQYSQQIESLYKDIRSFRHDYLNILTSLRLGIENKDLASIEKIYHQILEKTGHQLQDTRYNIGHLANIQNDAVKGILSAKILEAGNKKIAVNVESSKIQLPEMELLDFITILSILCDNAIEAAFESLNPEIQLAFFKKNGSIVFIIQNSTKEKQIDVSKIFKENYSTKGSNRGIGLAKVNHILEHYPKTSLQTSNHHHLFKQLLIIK
method-description: cell-based or functional assay
# label = Fulfilled if Transformation efficiency (vs no CSP), 5 µg/ml peptide, S. mutans wild-type UA159 < 200 fold increase else Not fulfilled

// known answers, use as guide
binder	cat
SGSLSTFFRLFNRSFTQALK [CSP peptide analog F1]	Not fulfilled
SGSLSTFFRLFNRSFTQALGV [CSP peptide analog F2]	Not fulfilled
SGSLTFFRLFNRSFTQALGK [CSP peptide analog E1]	Not fulfilled
SGSLSTFFALFNRSFTQALGK [CSP peptide analog C2]	Fulfilled
SGSLSTFFRLFNASFTQALGK [CSP peptide analog E2]	Not fulfilled

Incoming: Does the reported Transformation efficiency (vs no CSP), 5 µg/ml peptide, S. mutans wild-type UA159 of the following binder sit strictly below 200 fold increase? SGSLSTFFRLFNRSFTQAGK [CSP peptide analog G1]
Outgoing: Not fulfilled

Incoming: Does the reported Transformation efficiency (vs no CSP), 5 µg/ml peptide, S. mutans wild-type UA159 of the following binder sit strictly below 200 fold increase? SGSSTFFRLFNRSFTQALGK [CSP peptide analog D1]
Outgoing: Not fulfilled

Incoming: Does the reported Transformation efficiency (vs no CSP), 5 µg/ml peptide, S. mutans wild-type UA159 of the following binder sit strictly below 200 fold increase? SGSLSTFFRLFNRSFTQALGA [CSP peptide analog G2]
Outgoing: Fulfilled

Incoming: Does the reported Transformation efficiency (vs no CSP), 5 µg/ml peptide, S. mutans wild-type UA159 of the following binder sit strictly below 200 fold increase? SGSLSTFFRLFNRSFTALGK [CSP peptide analog A2]
Outgoing: Fulfilled

Incoming: Does the reported Transformation efficiency (vs no CSP), 5 µg/ml peptide, S. mutans wild-type UA159 of the following binder sit strictly below 200 fold increase? SGSLSTFFRLFNVSFTQALGK [CSP peptide analog D2]
Outgoing: Fulfilled

Incoming: Does the reported Transformation efficiency (vs no CSP), 5 µg/ml peptide, S. mutans wild-type UA159 of the following binder sit strictly below 200 fold increase? SGSLSTFFVLFNRSFTQALGK [CSP peptide analog B2]
Outgoing: Fulfilled

Incoming: Does the reported Transformation efficiency (vs no CSP), 5 µg/ml peptide, S. mutans wild-type UA159 of the following binder sit strictly below 200 fold increase? SGSLSTFFRLFNRSFTQALGK [mature wild-type S. mutans competence stimulating peptide (CSP)]
Outgoing: Not fulfilled
